All values here come from the NIST ThermoML archive (doi:10.1021/acs.jced.9b00668).

Give refractive index for every item shown.
test: refractive index (Na D-line) (dimensionless); settings: 298.15 K; 101.3 kPa; Liquid; Standard Abbe refractometry
Give bare numbers.

Consider the following illustrative entries.
>>> print(df.to_string())
                      molecule   result
0  COC(C)=O [methyl ethanoate]  1.35875
1               CC(C)CC(C)(C)C  1.38905

For each listed entry, give its refractive index.
1. CCOC(C)=O [ethyl acetate]
2. CCCCCCC

[1.36981, 1.38527]

* * *

settings: 298.15 K; 101.3 kPa; Liquid; Vibrating tube method
For each of the molecules below, state its mass density.
One number for each entry, in kg/m3.

>>> print(df.to_string())
                      molecule  unit_text  result
0               CC(C)CC(C)(C)C      kg/m3   687.8
1    CCOC(C)=O [ethyl acetate]      kg/m3   894.4
2  COC(C)=O [methyl ethanoate]      kg/m3   927.1

Which mass density is reported for this molecule? CCCCCCC
679.7
